System: BDF1 mice, Lewis lung carcinoma iv, survival T/C
Assay: NCI In Vivo Anticancer Drug Screen. Data for tumor model Lewis Lung Carcinoma (intravenous) in B6D2F1 (BDF1) mice
Conditions: endpoint: median survival time; dose: 6.25 mg/kg/injection; schedule: Q01DX009 (ip); vehicle: Klucel (hydroxypropylcellulose) (HPC); higher = longer survival
Inconclusive results and toxic doses are left out.
Measured Metric: T/C

[[record]]
compound = "COc1ccc(C(N)=O)cc1N=NN(C)C"
study_system = "BDF1 mice, Lewis lung carcinoma iv, survival T/C"
measured_metric = "T/C"
result = "98 % of control"

[[record]]
compound = "CC(=O)NC(CCc1ccc(Cl)c(Cl)c1)c1cccc(O)c(=O)c1 (stereo not given)"
study_system = "BDF1 mice, Lewis lung carcinoma iv, survival T/C"
measured_metric = "T/C"
result = "97 % of control"

[[record]]
compound = "COc1ccc2[nH]c3c(c2c1)CCNC3CC(C)CCC=C(C)C (stereo not given)"
study_system = "BDF1 mice, Lewis lung carcinoma iv, survival T/C"
measured_metric = "T/C"
result = "116 % of control"

[[record]]
compound = "CN(C)c1ccc2c(N(C)C)cc(N(C)C)nc2c1"
study_system = "BDF1 mice, Lewis lung carcinoma iv, survival T/C"
measured_metric = "T/C"
result = "102 % of control"

[[record]]
compound = "C=C(Cl)C(=NC(C)(C)C)Nc1ccccc1C"
study_system = "BDF1 mice, Lewis lung carcinoma iv, survival T/C"
measured_metric = "T/C"
result = "110 % of control"

